Let's go through some AC50 measurements on Cytochrome P450 2C9 (Homo sapiens, UniProt P11712) together.
Sequence (P11712 whole entry): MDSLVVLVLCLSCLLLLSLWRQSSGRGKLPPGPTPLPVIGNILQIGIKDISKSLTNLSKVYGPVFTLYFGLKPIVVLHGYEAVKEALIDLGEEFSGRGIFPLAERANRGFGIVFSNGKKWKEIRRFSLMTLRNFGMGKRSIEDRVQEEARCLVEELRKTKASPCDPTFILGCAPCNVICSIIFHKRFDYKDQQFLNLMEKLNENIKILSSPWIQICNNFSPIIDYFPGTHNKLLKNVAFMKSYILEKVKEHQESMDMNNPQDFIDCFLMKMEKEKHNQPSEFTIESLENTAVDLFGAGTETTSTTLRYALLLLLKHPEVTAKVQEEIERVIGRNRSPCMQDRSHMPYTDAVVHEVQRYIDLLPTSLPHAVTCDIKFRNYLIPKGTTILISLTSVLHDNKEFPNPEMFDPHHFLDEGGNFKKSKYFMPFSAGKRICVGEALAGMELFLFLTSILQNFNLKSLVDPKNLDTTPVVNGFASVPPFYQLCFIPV

Compound | AC50
COc1ccc(NC(=O)CSc2nnc(CNC(=O)c3ccco3)n2-c2ccccc2OC)cc1 | 5.01 µM (inconclusive)
CN(C)C(=O)CSC1c2ccccc2C(=O)N1c1ccccc1 (configuration not stated) | 35.5 µM (inconclusive)
O=C(CCC1CCCCC1)Nc1c2c(nn1-c1ccc(F)cc1)CS(=O)(=O)C2 | 12.6 µM (inconclusive)
CCN(CC)C(=O)c1sc2[nH]c(=S)n(-c3ccccc3)c(=O)c2c1C | 8.91 µM (inconclusive)
CCCCCCCCCCCCCCSCC(=O)O | 39.8 µM (inconclusive)
C=CCNC(=S)N/N=C/c1ccc(OCc2ccccc2)cc1 | 15.8 µM (inconclusive)
CCCC1(C(=O)OC)C=C2C(=C(C(C)C)C(=O)C2C)CN1 (configuration not stated) | 20 µM (inconclusive)
Cc1ccc2ccccc2c1CSc1nc(N)nc2c1ncn2CC(C)C | 7.94 µM (inconclusive)
CC1CN(C(NC(=O)C(C)(C)C)C(Cl)(Cl)Cl)CC(C)O1 (configuration not stated) | 14.1 µM (inconclusive)
CSC(=N)N/N=C/c1ccc([N+](=O)[O-])cc1 | 10 µM (inconclusive)
CCOC(=O)c1ccc(Nc2nc(C(=O)OCC)nc3ccccc23)cc1 | 3.55 µM (inconclusive)
Cc1ccc(-c2nc3ccccc3s2)cc1NC(=O)c1cc(-n2cnnc2)ccc1Cl | 2.51 µM (inconclusive)
Clc1ccc(SCc2cc(-c3ccccc3)no2)cc1 | 4.47 µM (inconclusive)
O=C(OCc1ccccc1)/C(=C/c1ccc(Cl)cc1)NC(=O)c1ccccc1Cl | 1.58 µM (inconclusive)
CC(C)C(=O)NCCCc1ccccc1 | 5.62 µM (inconclusive)
COc1ncc2nc(-c3ccc(Cl)cc3)c(=O)n(C[C@H]3CCCO3)c2n1 | 25.1 µM (inconclusive)
COCCNC(=O)/C(C#N)=C/c1ccc(-c2ccc(OC)cc2[N+](=O)[O-])o1 | 39.8 µM (inconclusive)
CCc1ccc(-c2cc(C(=O)NCc3ccco3)c3ccccc3n2)s1 | 2 µM (inconclusive)
Cc1ccccc1C(=O)NC(NCc1ccco1)C(Cl)(Cl)Cl (configuration not stated) | 0.0398 µM (inconclusive)
CN(C)CCNc1ncnc2c1sc1nc(N3CCOCC3)c3c(c12)CC(C)(C)SC3 | 25.1 µM (inconclusive)
CCC(C(=O)N1CCOCC1)n1c(C(=O)OC)cc2occc21 (configuration not stated) | 10 µM (inconclusive)
COC(=O)[C@@]1(Cc2ccc(F)cc2)[C@H]2c3cc(C(=O)N(C)C)n(Cc4ccc(S(C)(=O)=O)cc4)c3C[C@H]2CN1C(=O)c1ccccc1 | 15.8 µM (inconclusive)

src = ChEMBL document CHEMBL1201862
